experimental-target: EGFR L858R (Homo sapiens (Human), UniProt P00533, L858R)
Sequence (P00533 25-1210 L858R): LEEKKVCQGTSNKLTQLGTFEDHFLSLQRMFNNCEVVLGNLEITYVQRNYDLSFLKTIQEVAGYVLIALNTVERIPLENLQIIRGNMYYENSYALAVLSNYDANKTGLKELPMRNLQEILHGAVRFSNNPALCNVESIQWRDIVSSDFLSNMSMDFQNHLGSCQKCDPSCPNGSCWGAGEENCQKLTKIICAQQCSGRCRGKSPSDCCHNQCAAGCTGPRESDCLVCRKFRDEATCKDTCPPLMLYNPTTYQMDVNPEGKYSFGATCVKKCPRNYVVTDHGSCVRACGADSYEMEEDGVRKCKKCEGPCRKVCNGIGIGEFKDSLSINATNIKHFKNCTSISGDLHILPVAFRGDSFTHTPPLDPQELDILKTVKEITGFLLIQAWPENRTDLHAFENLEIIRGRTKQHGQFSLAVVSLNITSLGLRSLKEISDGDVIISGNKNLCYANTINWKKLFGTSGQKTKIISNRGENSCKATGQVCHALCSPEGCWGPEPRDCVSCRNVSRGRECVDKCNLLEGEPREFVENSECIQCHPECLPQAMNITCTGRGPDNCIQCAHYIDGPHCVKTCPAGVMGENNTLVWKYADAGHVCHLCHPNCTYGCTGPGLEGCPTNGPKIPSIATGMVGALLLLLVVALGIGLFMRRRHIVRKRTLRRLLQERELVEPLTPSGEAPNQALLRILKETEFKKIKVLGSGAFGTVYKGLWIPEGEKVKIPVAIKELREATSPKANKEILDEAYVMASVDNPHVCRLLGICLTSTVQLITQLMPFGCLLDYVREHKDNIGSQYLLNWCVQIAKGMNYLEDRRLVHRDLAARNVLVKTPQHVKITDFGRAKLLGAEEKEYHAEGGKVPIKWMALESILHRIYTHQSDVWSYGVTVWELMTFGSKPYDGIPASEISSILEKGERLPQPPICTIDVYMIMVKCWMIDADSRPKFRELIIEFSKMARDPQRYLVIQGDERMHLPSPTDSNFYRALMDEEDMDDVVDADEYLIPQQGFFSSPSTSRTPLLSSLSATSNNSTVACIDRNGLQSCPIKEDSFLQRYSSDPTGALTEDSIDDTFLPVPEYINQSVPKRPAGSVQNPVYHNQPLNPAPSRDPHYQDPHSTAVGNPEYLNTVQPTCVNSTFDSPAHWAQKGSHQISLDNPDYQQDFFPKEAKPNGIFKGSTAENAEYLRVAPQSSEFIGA
method: Biochemical EGFR inhibition assay, EGFR L858R
assay-conditions: Caliper mobility shift; 1.0 mM ATP or ATP Km; read-out: Enz EGFR_L858R IC50
pIC50: −log10 of the molar value.
reported-metric: pIC50

[[record]]
molecule = "CCOc1cc2ncnc(-c3cn(C)nc3-c3ccccc3)c2cc1N1CCN(C)CC1"
reported_metric = "pIC50"
result = 8.15

[[record]]
molecule = "COc1cc2ncnc(-c3cn(C)nc3-c3ccccc3)c2cc1-c1cccc2c1cnn2C"
reported_metric = "pIC50"
result = 8.15


P = COc1cc2ncnc(-c3cn(C)nc3-c3ccccc3)c2nc1O[C@@H](C)c1cnnn1C
Q = COc1cc2ncnc(-c3cn(C)nc3-c3ccccc3)c2nc1NC(=O)[C@@]1(C(F)(F)F)CCCN1C (single isomer, unassigned)
# argmax over pIC50 for candidates P and Q Lab note: record the label of whichever item you select.
Q
(Q: 8.23, P: 8.02)

----------
experimental-target: pEGFR (Tyr1068) in PC-9 cells (Ex19Del) (Homo sapiens (Human), UniProt P00533, DEL746-750)
Sequence (P00533 other isoform, or with tags, fused parts or gaps del 746-750): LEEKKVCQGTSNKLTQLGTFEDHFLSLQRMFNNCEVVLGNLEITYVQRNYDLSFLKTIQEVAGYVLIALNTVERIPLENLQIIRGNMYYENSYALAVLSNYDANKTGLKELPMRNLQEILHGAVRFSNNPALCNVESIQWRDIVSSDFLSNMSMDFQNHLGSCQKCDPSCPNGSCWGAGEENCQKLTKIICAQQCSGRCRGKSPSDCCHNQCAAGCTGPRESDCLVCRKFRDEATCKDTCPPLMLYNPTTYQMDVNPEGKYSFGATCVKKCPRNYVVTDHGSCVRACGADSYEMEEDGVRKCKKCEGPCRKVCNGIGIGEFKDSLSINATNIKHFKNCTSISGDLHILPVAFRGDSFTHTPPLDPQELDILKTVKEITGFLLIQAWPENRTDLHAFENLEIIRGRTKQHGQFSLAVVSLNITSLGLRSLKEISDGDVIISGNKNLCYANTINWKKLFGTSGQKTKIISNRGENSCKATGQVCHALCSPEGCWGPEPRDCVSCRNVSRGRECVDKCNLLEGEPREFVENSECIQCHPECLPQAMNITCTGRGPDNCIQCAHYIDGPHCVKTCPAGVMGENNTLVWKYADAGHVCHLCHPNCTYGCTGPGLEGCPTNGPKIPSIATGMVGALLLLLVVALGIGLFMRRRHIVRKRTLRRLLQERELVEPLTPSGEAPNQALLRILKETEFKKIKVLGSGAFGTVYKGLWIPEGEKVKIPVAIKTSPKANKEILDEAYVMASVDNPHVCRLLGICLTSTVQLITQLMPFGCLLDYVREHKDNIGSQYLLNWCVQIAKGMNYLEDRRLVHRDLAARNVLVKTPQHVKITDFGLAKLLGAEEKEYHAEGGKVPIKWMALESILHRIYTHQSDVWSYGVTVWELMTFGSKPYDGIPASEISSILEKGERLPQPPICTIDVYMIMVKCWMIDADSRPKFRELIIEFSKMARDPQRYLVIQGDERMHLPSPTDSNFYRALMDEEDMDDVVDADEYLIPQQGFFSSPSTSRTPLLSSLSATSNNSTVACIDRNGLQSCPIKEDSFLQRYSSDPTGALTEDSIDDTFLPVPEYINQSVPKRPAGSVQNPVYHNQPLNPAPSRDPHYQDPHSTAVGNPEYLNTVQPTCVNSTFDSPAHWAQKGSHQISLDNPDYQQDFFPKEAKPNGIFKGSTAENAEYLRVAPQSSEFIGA
method: PC-9 pEGFR AlphaLISA assay
assay-conditions: 4 hours incubation, p-EGFR (Tyr1068) AlphaLISA, read-out: Ext pEGFR_PC-9 Ex19Del IC50
pIC50: −log10 of the molar value.
reported-metric: pIC50

P = COc1cc2ncnc(-c3cn(C)nc3-c3ccccc3F)c2nc1NC(=O)C12CC(N(C)C)(C1)C2
Q = COc1cc2ncnc(-c3cn(C)nc3-c3ccccc3)c2nc1NC(=O)c1cn(C(C)C)nc1C
R = COc1cc2ncnc(-c3cn(C)nc3-c3ccccc3)c2cc1CO
Order field: pIC50 | Direction: descending (largest first) State the ranking by listing the labels in the requested order.
Q, P, R

1 = COc1cc2ncnc(-c3cn(C)nc3-c3ccccc3)c2cc1NC(=O)[C@]12COC[C@H]1C2 (single isomer, unassigned)
2 = COc1cc2ncnc(-c3cn(C)nc3-c3ccccc3)c2cc1NC(=O)N1CCO[C@@H](C)[C@@H]1C
3 = CCC(=O)Nc1cc2c(-c3cnn(C4CCOCC4)c3-c3ccccc3)ncnc2cc1OC
Order the entries by their reported pIC50, beginning at the minimum. Note for the reader: the ranking is given by listing the labels in the order requested.
3, 2, 1

1 = COc1cc2ncnc(-c3cn(C)nc3-c3ccc(F)cc3)c2nc1NC(=O)C12CC(N(C)C)(C1)C2
2 = COc1cc2ncnc(-c3cn(C)nc3-c3ccccc3)c2cc1NC(=O)c1cnn2c1CCCC2
3 = COc1cc2ncnc(-c3cn(C)nc3-c3ccccc3)c2cc1NC(=O)[C@H]1CCN(C)C[C@@H]1F
4 = COc1cc2ncnc(-c3cn(CCO)nc3-c3ccccc3)c2cc1NC(=O)C12CC(C1)C2
// sort entries: pIC50, high to low Present the labels in the sequence the task asks for.
3, 2, 4, 1

----------
experimental-target: EGFR (d746-750) (Homo sapiens (Human), UniProt P00533, DEL746-750)
Sequence (P00533 other isoform, or with tags, fused parts or gaps del 1-694/del 746-750 limits assumed): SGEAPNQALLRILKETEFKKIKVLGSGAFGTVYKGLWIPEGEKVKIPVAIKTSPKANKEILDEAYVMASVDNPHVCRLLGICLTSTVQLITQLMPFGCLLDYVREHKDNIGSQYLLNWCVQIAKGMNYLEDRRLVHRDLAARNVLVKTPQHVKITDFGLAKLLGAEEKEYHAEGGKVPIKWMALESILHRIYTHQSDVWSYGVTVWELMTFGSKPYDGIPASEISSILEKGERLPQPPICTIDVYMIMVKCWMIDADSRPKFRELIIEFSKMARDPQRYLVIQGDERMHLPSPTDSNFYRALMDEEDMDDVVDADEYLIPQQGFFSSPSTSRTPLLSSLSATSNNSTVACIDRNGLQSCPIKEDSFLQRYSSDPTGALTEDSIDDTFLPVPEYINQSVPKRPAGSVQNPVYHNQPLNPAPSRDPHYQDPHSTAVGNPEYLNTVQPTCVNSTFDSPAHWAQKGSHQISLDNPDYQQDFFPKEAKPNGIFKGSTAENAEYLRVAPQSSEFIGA
method: Biochemical EGFR inhibition assay, EGFR (d746-750)
assay-conditions: Caliper mobility shift; 1.0 mM ATP or ATP Km; read-out: Enz EGFR_Exon19-del746-750 IC50
reported-metric: IC50 (nM)

# example entries with known answers
[[record]]
line_notation = "COc1cc2ncnc(-c3cn(CC(F)F)nc3-c3ccccc3)c2cc1C1(O)CCOCC1"
reported_metric = "IC50"
result = 1.4

[[record]]
line_notation = "CN1C[C@H]2C[C@@]2(C(=O)Nc2nc3c(-c4cn(C)nc4-c4ccccc4)ncnc3cc2OC2CC2)C1"
reported_metric = "IC50"
result = 1.5

[[record]]
line_notation = "COc1cc2ncnc(-c3cn(C)nc3-c3ccccc3)c2cc1OC(=O)N1[C@H](C)COC[C@@H]1C"
reported_metric = "IC50"
result = 2.4


a = COc1cc2ncnc(-c3cn(C)nc3-c3c(F)cccc3F)c2cc1NC(=O)C1CC1
b = COc1cc2ncnc(-c3cn(C)nc3-c3ccccc3)c2cc1NC(=O)N1CCO[C@@H](C)[C@@H]1C
Param pair: a , b . Output: the one whose IC50 is numerically greater. Return value: the label identifying the chosen record.
b

I = COc1cc2ncnc(-c3cn(C)nc3-c3ccccc3)c2cc1-c1cccc(C(=O)NC2CC2)c1
II = CCOc1cc2ncnc(-c3cn(C)nc3-c3ccccc3)c2cc1NC(=O)c1cccnc1
Pick the one with the larger IC50: I vs II Your choice should be expressed through its label.
I
(I: 2.8 nM, II: 0.7 nM)

P = COc1cc2ncnc(-c3cn(C)nc3-c3ccccc3)c2cc1NC(=O)c1ccc(F)cn1
Q = COc1cc2ncnc(-c3cn(C)nc3-c3ccccc3)c2nc1O[C@H](C)c1cocn1
Determine, for P and Q , which has the greater value of IC50. Pick one; state its label.
Q
(Q: 2.9 nM, P: 2 nM)

----------
experimental-target: EGFR (d746-750) (Homo sapiens (Human), UniProt P00533, DEL746-750)
method: Biochemical EGFR inhibition assay, EGFR (d746-750)
assay-conditions: Caliper mobility shift; 1.0 mM ATP or ATP Km; read-out: Enz EGFR_Exon19-del746-750 IC50
pIC50: −log10 of the molar value.
reported-metric: pIC50

// known answers, use as guide
[[record]]
molecule = "COc1cc2ncnc(-c3cn(C)nc3-c3ccccc3)c2nc1OC(C)c1nnc(C)o1 (stereo not shown)"
result = 8.52

[[record]]
molecule = "COc1cc2ncnc(-c3cn(C)nc3-c3ccccc3)c2cc1OC(=O)N1CCN(C)CC1C (stereo not shown)"
result = 8.77

[[record]]
molecule = "CCC(=O)Nc1cc2c(-c3cn(C4COC4)nc3-c3ccccc3)ncnc2cc1OC"
result = 8.85

[[record]]
molecule = "COc1cc2ncnc(-c3cn(CCO)nc3-c3ccccc3)c2cc1NC(=O)C12CC(C1)C2"
result = 8.74

[[record]]
molecule = "COc1cc2ncnc(-c3cn(C)nc3-c3ccccc3)c2cc1NC(=O)c1cnn2c1CCCC2"
result = 9.00

[[record]]
molecule = "COc1cc2ncnc(-c3cn(C)nc3-c3ccccc3)c2nc1O[C@@H](C)c1cn(C)nn1"
result = 8.62


P = CN(C)C12CC(C(=O)Nc3nc4c(-c5cn(C)nc5-c5ccccc5F)ncnc4cc3OC3CC3)(C1)C2
Q = COc1cc2ncnc(-c3cn(CC4CC4)nc3-c3ccccc3)c2nc1NC(=O)[C@@]12C[C@@H]1CN(C)C2 (single isomer, unassigned)
Given the two records P and Q , choose the one whose pIC50 value is lower. Answer by quoting the chosen item's label.
P
(P: 8.62, Q: 9.15)

P = COc1cc2ncnc(-c3cn(C)nc3-c3ccccc3)c2cc1NC(=O)C12CC(F)(C1)C2
Q = COc1cc2ncnc(-c3cn(C4CC4)nc3-c3ccccc3)c2nc1NC(=O)[C@@]12C[C@@H]1CN(C)C2 (single isomer, unassigned)
Task for the reader: decide whether P or Q has the larger pIC50. API: response body contains the label of the selected item.
Q

----------
experimental-target: EGFR (d746-750) (Homo sapiens (Human), UniProt P00533, DEL746-750)
method: Biochemical EGFR inhibition assay, EGFR (d746-750)
assay-conditions: Caliper mobility shift; 1.0 mM ATP or ATP Km; read-out: Enz EGFR_Exon19-del746-750 IC50
pIC50: −log10 of the molar value.
reported-metric: pIC50

The examples below pair each entry with its known result.
[[record]]
molecule = "COc1cc2ncnc(-c3cn(C)nc3-c3ccccc3)c2nc1O[C@@H](C)c1cocn1 [Example 39]"
result = 8.68

[[record]]
molecule = "COc1cc2ncnc(-c3cn(CC(F)F)nc3-c3ccccc3)c2nc1NC(=O)[C@H]1CCN1C [Example 391]"
result = 8.89

[[record]]
molecule = "COc1cc2ncnc(-c3cn(C)nc3-c3ccccc3)c2cc1-c1cccc2c1cnn2C [Example 141]"
result = 8.72


a = COc1cc2ncnc(-c3cn(C)nc3-c3ccccc3)c2nc1NC(=O)C1(C(F)(F)F)CCOCC1 [Example 383]
b = COc1cc2ncnc(-c3cn(C)nc3-c3ccccc3F)c2nc1NC(=O)[C@@]12C[C@@H]1CN(C)C2 [Example 373]
c = CN(C)C12CC(C(=O)Nc3nc4c(-c5cn(C)nc5-c5ccc(F)cc5)ncnc4cc3OC3CC3)(C1)C2 [Example 461]
Sort by pIC50, descending. Returns: the labels listed in the requested order.
b, a, c
(b: 9.10, a: 8.77, c: 8.54)

I = CC(C)Oc1cc2ncnc(-c3cn(C)nc3-c3ccccc3)c2cc1[C@@H](C)O (single isomer, unassigned) [Example 114]
II = COc1cc2ncnc(-c3cn(CC(F)F)nc3-c3ccccc3)c2nc1NC(=O)[C@]12C[C@H]1CN(C)C2 (single isomer, unassigned) [Example 396]
Between the entries labeled I and II , whose measured pIC50 is lower? Field: selected label. Fill in the label of the entry you choose.
I
(I: 8.64, II: 8.96)

A = COc1cc2ncnc(-c3cn(C)nc3-c3ccccc3)c2cc1NC(=O)[C@H]1C[C@@H]1C(F)(F)F [Example 287]
B = COc1cc2ncnc(-c3cn(C)nc3-c3ccccc3)c2cc1O[C@@H]1CN(C)C[C@@H]1F [Example 5]
For the pair A and B , which entry has the numerically smaller recorded pIC50? In your reply, give the label of the chosen option.
B
